System: HEK-293T
Assay: Multiplex assay against HEK293T
Type: toxicity, cell-based
Details: human, 48 h, 1 µM, compound concentration 1 uM, replicate 2
Can you tell me Total Cell Count for the items I'm about to list?
# print the numeric value only

Form field Total Cell Count, entry `C=CC(=O)Nc1cc(-n2c(=O)ccc3cnc4ccc(-c5ccc(NS(C)(=O)=O)cc5)cc4c32)ccc1C` : 321

Form field Total Cell Count, entry Oc1cccc(-c2nc(N3CCOCC3)c3oc4ncccc4c3n2)c1 [PI-103] : 185

Form field Total Cell Count, entry `CCCCN(CC)c1nc(C)nc2c1c(C)cn2-c1c(C)cc(C)cc1C.Cl` : 539

Form field Total Cell Count, entry CC(C)[C@H](CO)Nc1nc(Nc2cccc(Cl)c2)c2ncn(C(C)C)c2n1 [PURVALANOLA] : 414

Form field Total Cell Count, entry CC(C)C[C@H](NC(=O)[C@H](Cc1ccccc1)NC(=O)CNC(=O)CNC(=O)[C@@H](N)Cc1ccc(O)cc1)C(=O)O [ENKEPHALIN] : 546

Form field Total Cell Count, entry `Cl.NC[C@@H]1O[C@H](C23CC4CC(CC(C4)C2)C3)Cc2c1ccc(O)c2O` : 440

Form field Total Cell Count, entry `CCCc1cc(C)[nH]c(=O)c1CNC(=O)c1cc(-c2ccc(N3CCN(C(C)C)CC3)nc2)cc2c1cnn2C(C)C` : 327

Form field Total Cell Count, entry `N#Cc1cccc(C(=O)Nc2cc(-c3ccccc3)nn2-c2ccccc2)c1` : 356

Form field Total Cell Count, entry CC(Cc1ccc(O)c(O)c1)C(C)Cc1ccc(O)c(O)c1 (stereo not drawn) [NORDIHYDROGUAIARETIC ACID] : 312

Form field Total Cell Count, entry `Cc1ccc(S(=O)(=O)NC2c3ccccc3Oc3ccccc32)cc1` : 466

Form field Total Cell Count, entry `CC(/C=C1\SC(=S)N(CCCC(=O)Nc2ccc(C(=O)O)c(O)c2)C1=O)=C\c1ccccc1` : 570

Form field Total Cell Count, entry `CN(c1cc(C(F)(F)F)nc(OCCC(=O)O)n1)c1cccc2c1CCC2` : 472

Form field Total Cell Count, entry CCCCCNC(=N)N/N=C/c1c[nH]c2ccc(OC)cc12.O=C(O)/C=C\C(=O)O [TEGASEROD MALEATE] : 411

Form field Total Cell Count, entry CN1C(=O)[C@@H](NC(=O)c2cc3ccccc3[nH]2)N=C(c2ccccc2)c2ccccc21 [DEVAZEPIDE] : 361

Form field Total Cell Count, entry N#CCNC(=O)c1ccc(-c2ccnc(Nc3ccc(N4CCOCC4)cc3)n2)cc1 [MOMELOTINIB] : 437

Form field Total Cell Count, entry `Cc1c(P(=S)(c2ccccc2)c2ccccc2)n2ccccc2[n+]1C/C=C/c1ccccc1.[Br-]` : 157

Form field Total Cell Count, entry `CC(C)c1cc(Nc2nc(N3CCC[C@H](N)C3)ncc2C(N)=O)cc(C(C)C)n1` : 213

Form field Total Cell Count, entry C[C@@H](Oc1cc(-n2cnc3ccc(CN4CCN(C)CC4)cc32)sc1C(N)=O)c1ccccc1C(F)(F)F [GSK-461364] : 191

---

Can you tell me Population Mitochondria Different-Phenotype (%) for the items I'm about to list?
System: U2OS
Test: Multiplex assay against U2OS
Type: toxicity, cell-based
Conditions: human, 12 h, 10 µM, compound concentration 10 uM, replicate 1
Number plus unit, in that order.

Note to self: Population Mitochondria Different-Phenotype (%) of `CC[C@@H]1C(=O)N(C)c2cnc(Nc3ccc(C(=O)NC4CCN(C)CC4)cc3OC)nc2N1C1CCCC1` with U2OS was 72%

Note to self: Population Mitochondria Different-Phenotype (%) of CCCCCNC(=N)N/N=C/c1c[nH]c2ccc(OC)cc12.O=C(O)/C=C\C(=O)O [TEGASEROD MALEATE] with U2OS was 100%

Note to self: Population Mitochondria Different-Phenotype (%) of `CC[C@H](Nc1ncnc2[nH]cnc12)c1nc2cccc(F)c2c(=O)n1-c1ccccc1` with U2OS was 18%

Note to self: Population Mitochondria Different-Phenotype (%) of CN1C(=O)[C@@H](NC(=O)c2cc3ccccc3[nH]2)N=C(c2ccccc2)c2ccccc21 [DEVAZEPIDE] with U2OS was 45%

Note to self: Population Mitochondria Different-Phenotype (%) of `CCOC(=O)CCNc1cc(N2CCc3ccccc3CC2)nc(-c2ccccn2)n1` with U2OS was 32%

Note to self: Population Mitochondria Different-Phenotype (%) of `Cl.NC[C@@H]1O[C@H](C23CC4CC(CC(C4)C2)C3)Cc2c1ccc(O)c2O` with U2OS was 13%

Note to self: Population Mitochondria Different-Phenotype (%) of `Cc1c(Nc2ccc(S(=O)(=O)N3CCN(C)CC3)cc2F)nc2ccc(Nc3cnn(C4CC4)c3)cn2c1=O` with U2OS was 21%

Note to self: Population Mitochondria Different-Phenotype (%) of `CC(C)[C@H](CO)Nc1nc(Nc2cccc(Cl)c2)c2ncn(C(C)C)c2n1` with U2OS was 96%

Note to self: Population Mitochondria Different-Phenotype (%) of `CC(/C=C1\SC(=S)N(CCCC(=O)Nc2ccc(C(=O)O)c(O)c2)C1=O)=C\c1ccccc1` with U2OS was 5%

Note to self: Population Mitochondria Different-Phenotype (%) of `Cc1c(P(=S)(c2ccccc2)c2ccccc2)n2ccccc2[n+]1C/C=C/c1ccccc1.[Br-]` with U2OS was 100%

Note to self: Population Mitochondria Different-Phenotype (%) of CC(Cc1ccc(O)c(O)c1)C(C)Cc1ccc(O)c(O)c1 (configuration not stated) [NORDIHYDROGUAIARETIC ACID] with U2OS was 12%

Note to self: Population Mitochondria Different-Phenotype (%) of `C=CC(=O)Nc1cc(-n2c(=O)ccc3cnc4ccc(-c5ccc(NS(C)(=O)=O)cc5)cc4c32)ccc1C` with U2OS was 26%

Note to self: Population Mitochondria Different-Phenotype (%) of `CC[C@@]1(O)C(=O)OCc2c1cc1n(c2=O)Cc2cc3ccccc3nc2-1` with U2OS was 24%

Note to self: Population Mitochondria Different-Phenotype (%) of `N#CCNC(=O)c1ccc(-c2ccnc(Nc3ccc(N4CCOCC4)cc3)n2)cc1` with U2OS was 20%

Note to self: Population Mitochondria Different-Phenotype (%) of `CCOc1ccn(-c2ccc(F)cc2)c(=O)c1C(=O)Nc1ccc(Oc2ccnc(N)c2Cl)c(F)c1` with U2OS was 33%

Note to self: Population Mitochondria Different-Phenotype (%) of `N#Cc1cccc(C(=O)Nc2cc(-c3ccccc3)nn2-c2ccccc2)c1` with U2OS was 86%

Note to self: Population Mitochondria Different-Phenotype (%) of `C[C@@H](Oc1cc(-n2cnc3ccc(CN4CCN(C)CC4)cc32)sc1C(N)=O)c1ccccc1C(F)(F)F` with U2OS was 100%

The measured values listed here are drawn from ChEMBL document CHEMBL4689842.
